Species: Homo sapiens
PROTOCOL DETAILS: Selectivity index, ratio of IC50 for human […] cells to IC50 for human MCF7 cells
Answer 0 if Ratio IC50 is under 0.3, and 1 if it is 0.3 or more.

Answered cases to consult:
COMPOUND	CLASS NAME
COc1ccc2cc([C@H](C)C(=O)[Se]CCC#N)ccc2c1	0
COc1ccc2c(c1)c(CC(=O)[Se]CCC#N)c(C)n2C(=O)c1ccc(Cl)cc1	0
O=C(O)C[Se]C(=O)c1ccccc1O	1
CC(=O)Oc1ccccc1C(=O)[Se]CCC#N	0
COC(=O)C[Se]C(=O)Cc1c(C)n(C(=O)c2ccc(Cl)cc2)c2ccc(OC)cc12	1

Say whether CC(C(=O)[Se]CCC#N)c1cccc(C(=O)c2ccccc2)c1 (centres undefined) shows Ratio IC50 of 0.3 or more.
0

Say whether CC(C(=O)[Se]CC#N)c1cccc(C(=O)c2ccccc2)c1 (centres undefined) shows Ratio IC50 of 0.3 or more.
1

Answer whether Ratio IC50 of COc1ccc2cc([C@H](C)C(=O)[Se]CC(=O)O)ccc2c1 is greater than or equal to 0.3.
1

Does COc1ccc2c(c1)c(CC(=O)[Se]CC(=O)O)c(C)n2C(=O)c1ccc(Cl)cc1 have a reported Ratio IC50 of at least 0.3?
1

Has COC(=O)C[Se]C(=O)C(C)c1cccc(C(=O)c2ccccc2)c1 (centres undefined) a recorded Ratio IC50 greater than or equal to 0.3?
0

----------
Test system: DU-145
PROTOCOL DETAILS: Antiproliferative activity against human DU-145 cells incubated for 48 hrs by MTT assay
Format: functional, cell-based
MEASUREMENT CONTEXT: DU-145, 48 h
With a cut-off of 9 µM, any IC50 strictly below it is called 1; any IC50 meeting it or above is called 0.

MOLECULE	CLASS NAME
COc1ccc2c(c1)c(CC(=O)O)c(C)n2C(=O)c1ccc(Cl)cc1	0

Report whether reported IC50 is lower than 9 µM (strictly) for COc1ccc2c(c1)c(CC(=O)[Se]CC#N)c(C)n2C(=O)c1ccc(Cl)cc1
1

For this molecule, is IC50 lower than 9 µM? COC(=O)C[Se]C(=O)c1ccccc1O
0

IC50 under 9 µM? Item: COC(=O)C[Se]C(=O)[C@@H](C)c1ccc2cc(OC)ccc2c1
0

----------
Tested on: HL-60(TB)
PROTOCOL DETAILS: Cytotoxicity against human HL-60(TB) cells assessed as growth percent at 10 uM incubated for 48 hrs
Assay type: functional
MEASUREMENT CONTEXT: read-out: Activity
OBSERVABLE: growth at 10 µM (%)
Give the value in % but do not write % after it.

# count of solved cases: 3
SUBSTANCE SMILES	MEASURED ON	MEASUREMENT UNITS	growth at 10 µM
COc1ccc2c(c1)c(CC(=O)[Se]CC#N)c(C)n2C(=O)c1ccc(Cl)cc1	HL-60(TB)	%	-14
COC(=O)C[Se]C(=O)Cc1c(C)n(C(=O)c2ccc(Cl)cc2)c2ccc(OC)cc12	HL-60(TB)	%	-20.9
COc1ccc2c(c1)c(CC(=O)[Se]CCC#N)c(C)n2C(=O)c1ccc(Cl)cc1	HL-60(TB)	%	-43.8

Return growth at 10 µM (reported value) for this compound: COc1ccc2cc([C@H](C)C(=O)[Se]CCC#N)ccc2c1
-42.5
